Condition Set: in n-propanol, 303.15 K
Recorded Metric: solubility (mole fraction)
Keep it simple and answer with nothing but the number.

stdin: Bench note: what solubility (mole fraction) did O=C1C2C3C=CC(C3)C2C(=O)N1O (stereo unspecified) show?
stdout: 0.0488

###

Condition Set: in 2-methoxyethanol, 288.15 K
Recorded Metric: solubility (mole fraction)
Keep it simple and answer with nothing but the number.

stdin: Bench note: what solubility (mole fraction) did O=C1C2C3C=CC(C3)C2C(=O)N1O (stereo unspecified) show?
stdout: 0.122

###

Condition Set: in 2-methoxyethanol, 318.15 K
Recorded Metric: solubility (mole fraction)
Keep it simple and answer with nothing but the number.

stdin: Bench note: what solubility (mole fraction) did O=C1C2C3C=CC(C3)C2C(=O)N1O (stereo unspecified) show?
stdout: 0.188
